- TARGET_OF_ASSAY: NMDA receptor subunits 1A/2A (Rattus norvegicus, UniProt P35439+Q00959)
- Construct: clones from Dr. P. H. Seeburg)
- Sequence (Q00959 20-1464 limits assumed, other chains not shown): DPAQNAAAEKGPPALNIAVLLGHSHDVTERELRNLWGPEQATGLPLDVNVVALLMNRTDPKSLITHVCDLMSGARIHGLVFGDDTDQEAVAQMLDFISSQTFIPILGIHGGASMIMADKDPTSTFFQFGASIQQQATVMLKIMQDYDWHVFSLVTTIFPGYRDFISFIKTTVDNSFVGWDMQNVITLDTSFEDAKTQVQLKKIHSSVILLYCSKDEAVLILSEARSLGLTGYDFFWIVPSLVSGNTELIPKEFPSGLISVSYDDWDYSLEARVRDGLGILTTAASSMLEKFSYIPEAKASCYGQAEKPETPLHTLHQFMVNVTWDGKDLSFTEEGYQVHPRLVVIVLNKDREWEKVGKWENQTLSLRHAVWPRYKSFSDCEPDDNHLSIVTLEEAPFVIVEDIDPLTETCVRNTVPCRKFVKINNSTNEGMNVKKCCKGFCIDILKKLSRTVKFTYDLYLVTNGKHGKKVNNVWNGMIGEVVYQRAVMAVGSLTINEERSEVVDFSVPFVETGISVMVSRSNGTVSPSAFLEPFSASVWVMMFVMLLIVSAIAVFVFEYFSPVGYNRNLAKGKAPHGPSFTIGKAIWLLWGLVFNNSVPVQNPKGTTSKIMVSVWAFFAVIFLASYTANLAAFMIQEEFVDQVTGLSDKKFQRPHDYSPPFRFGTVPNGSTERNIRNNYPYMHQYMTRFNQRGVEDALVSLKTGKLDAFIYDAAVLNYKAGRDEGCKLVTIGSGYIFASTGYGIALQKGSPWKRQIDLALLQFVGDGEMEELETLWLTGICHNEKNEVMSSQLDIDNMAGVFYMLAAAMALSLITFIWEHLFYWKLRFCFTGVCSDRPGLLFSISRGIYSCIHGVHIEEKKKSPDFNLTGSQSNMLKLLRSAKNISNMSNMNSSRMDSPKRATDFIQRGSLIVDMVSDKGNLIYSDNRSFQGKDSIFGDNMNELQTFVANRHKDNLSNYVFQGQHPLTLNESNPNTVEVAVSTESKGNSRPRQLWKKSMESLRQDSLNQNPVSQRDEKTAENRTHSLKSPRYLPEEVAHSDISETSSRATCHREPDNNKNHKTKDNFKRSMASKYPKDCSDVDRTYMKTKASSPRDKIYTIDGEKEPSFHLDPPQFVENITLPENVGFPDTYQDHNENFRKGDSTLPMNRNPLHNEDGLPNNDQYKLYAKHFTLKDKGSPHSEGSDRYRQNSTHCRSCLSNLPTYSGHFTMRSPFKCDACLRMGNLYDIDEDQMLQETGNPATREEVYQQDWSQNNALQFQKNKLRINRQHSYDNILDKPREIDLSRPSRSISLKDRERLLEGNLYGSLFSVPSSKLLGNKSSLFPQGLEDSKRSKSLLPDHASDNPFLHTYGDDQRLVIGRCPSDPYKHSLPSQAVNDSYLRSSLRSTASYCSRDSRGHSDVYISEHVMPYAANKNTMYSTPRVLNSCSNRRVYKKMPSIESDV
- EXPERIMENT: Electrophysiological assay at NMDA receptor subunits expressed in Xenopus oocytes, 1A/2A
- CONDITION: glutamate 100 μm and glycine 1-100 μm
Structures can show the parent of a compound that is named as a salt.
READOUT_TYPE: IC50 (µM)

P = Fc1ccc(OCCN2CCC(Cc3ccc4c(c3)CCCC4)CC2)cc1 [Ex. 140, hydrochloride]
Q = NNC(=O)Cc1cccc(OCCN2CCC(Cc3ccccc3)CC2)c1
R = CCc1ccc(CC2CCN(CCOc3ccc(O)cc3)CC2)cc1 [Ex. 120, hydrochloride]
Problem: Give the order of the entries above, sorted from least to greatest IC50. Write out the labels following the order that was asked for.
Solution: Q, R, P
(Q: 5.5 µM, R: 55 µM, P: 80 µM)

A = Cc1ccc(CC2CCN(CCOc3ccc(O)c(C)c3)CC2)c(F)c1 [Ex. 147, hydrochloride]
B = Oc1ccc(OCCN2CCC(Cc3ccccc3F)CC2)cc1 [Ex. 128, hydrochloride]
Problem: Field: lower IC50 | Options: A / B Your answer should be the label attached to the chosen record.
Solution: A
(A: 40 µM, B: 110 µM)
